Value source: PubChem BioAssay AID602300

Readings of inhibition for the listed molecules
biological target: Diacylglycerol lipase-beta (Mus musculus); experiment: mouse DAGLb inhibitors by competitive ABPP, late-stage follow-up, biochemical, gel-based fluorescence, overexpressed mouse, set 3 (AID 602300); conditions: HEK293T membrane mDAGLb, at 1 µM, hits give high values
I only need the number, in %, no unit after it.

Guide cases for inhibition, answers given:
>>> assay_value("O=C(N1CCCCC1c1ccccc1)n1cc(-c2ccc(-c3ccccc3CO)cc2)nn1 (centres undefined)")
0
>>> assay_value("O=C(N1CCCCC1c1ccccc1)n1cc(-c2ccc(-c3ccc(CO)cc3)cc2)nn1 (centres undefined)")
0
>>> assay_value("O=C(N1CCCCC1Cc1ccccc1)n1cc(-c2ccc(-c3cccc(CO)c3)cc2)nn1 (centres undefined)")
84

Task item: What does the data say about its inhibition? Entry: O=C(c1ccc(-c2ccc(-c3cn(C(=O)N4CCCCC4Cc4ccccc4)nn3)cc2)cc1)N1CCCCC1 (centres undefined)
Reply: 39

Task item: Again, but for O=C(c1cccc(-c2ccc(-c3cn(C(=O)N4CCCCC4c4ccccc4)nn3)cc2)c1)N1CCCCC1 (centres undefined)
Reply: 0

Task item: Again, but for NC(=O)c1ccc(-c2ccc(-c3cn(C(=O)N4CCCCC4c4ccccc4)nn3)cc2)cc1 (centres undefined)
Reply: 0

Task item: Again, but for O=C(c1ccc(-c2ccc(-c3cn(C(=O)N4CCCCC4c4ccccc4)nn3)cc2)cc1)N1CCCCC1 (centres undefined)
Reply: 0

Task item: Again, but for O=C(O)c1cccc(-c2ccc(-c3cn(C(=O)N4CCCCC4CCc4ccccc4)nn3)cc2)c1 (centres undefined)
Reply: 4

Task item: Again, but for O=C(O)c1cccc(-c2ccc(-c3cn(C(=O)N4CCCCC4c4ccccc4)nn3)cc2)c1 (centres undefined)
Reply: 6
